Origin of the recorded values: the supplement of paper PMC7125110

B1: glmS ribozyme (parent)
chain: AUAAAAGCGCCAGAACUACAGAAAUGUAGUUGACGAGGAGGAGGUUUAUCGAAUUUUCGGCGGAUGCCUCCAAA

# Variants of: B1
# assay.overview: self-cleavage kobs at 640 uM GlcN6P; higher = faster cleavage; RNA array
# experimental.parameters: with glucosamine-6-phosphate
Fewer inactive variants are shown than the library holds.
test.readout: self-cleavage kobs at 640 uM GlcN6P

G7U G9C G29C A39G U46A A52U U55C C67G C70U
< 1e-05 s⁻¹

Give self-cleavage kobs at 640 uM GlcN6P for each of the items listed below.
1. G44A A48U U56G
2. A33C G51U
3. A14U G37U
4. G29C A53G G63U
5. C11U G66A U69A
6. G43U C67G
7. A15G U31C U45C U49A
8. C34G G40C

Reply:
["< 1e-05 s⁻¹", "< 1e-05 s⁻¹", "< 1e-05 s⁻¹", "< 1e-05 s⁻¹", "4.24e-05 s⁻¹", "0.000597 s⁻¹", "< 1e-05 s⁻¹", "< 1e-05 s⁻¹"]

Give self-cleavage kobs at 640 uM GlcN6P for each of the items listed below.
1. G9C A12C U31C
2. A15U U54A
3. G40C U49C
4. G35U U57A
5. A6U G44U U49G

Reply:
1: < 1e-05 s⁻¹; 2: 0.00262 s⁻¹; 3: < 1e-05 s⁻¹; 4: < 1e-05 s⁻¹; 5: < 1e-05 s⁻¹

Give self-cleavage kobs at 640 uM GlcN6P for each of the items listed below.
1. U31G A39G
2. A6U A15G C19A A33C C68G
3. C11A U69G
4. A12U A15G C16U U31G C71U
5. U54G U55G

Reply:
0.00522 s⁻¹
< 1e-05 s⁻¹
0.000166 s⁻¹
0.000442 s⁻¹
0.00673 s⁻¹

Give self-cleavage kobs at 640 uM GlcN6P for each of the items listed below.
1. A12C G13A
2. C50U A64C

Reply:
1. 6.42e-05 s⁻¹
2. < 1e-05 s⁻¹

# self-cleavage kobs at 640 uM GlcN6P of A14G G37A U54A = 0.000505 s⁻¹
